# protocol_details: Cytotoxicity against Sprague-Dawley rat Cerebral cortex neuron assessed as LDH activity at 1 uM incubated for 24 hrs by LDH assay (reference value: […])
# Format: tissue-based
measured_parameter: Activity (mU/ml)
Answer with a number only, understood to be in mU/ml.

As a guide, the following entries are already answered.
> print(dat)
                                   compound  readout.number
1  COc1ccc(CN2CCN(C(=O)CCCCC3CCSS3)CC2)cc1 (stereo not drawn)             0.3
2  O=C(CCCCC1CCSS1)N1CCN(Cc2ccccc2)CC1 (stereo not drawn)            0.32

Now examine the next entry.
Kindly note the recorded Activity for O=C(O)CCCC[C@@H]1CCSS1 [THIOCTIC ACID] , which is 0.28
